Values were extracted from paper PMC11784839.

Tested target: tau (Homo sapiens, UniProt P10636)
Sequence (P10636 623-695 limits assumed): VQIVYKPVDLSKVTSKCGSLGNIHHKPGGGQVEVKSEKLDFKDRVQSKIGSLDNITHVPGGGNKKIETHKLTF
Test summary: MCE Phenols Library screening, tau biosensor cell seeding assay (AvZ)
Type: cell-based
Cond: Z score, replicate 2
Value type: Z Repl 2

Below, 4 compounds whose answers are already recorded.
{"Compound": "C=CCc1ccc(O)c(O)c1", "Value observed": -1.127}
{"Compound": "COc1cccc(OC)c1C(=O)OCc1cc(O)ccc1O[C@@H]1O[C@H](CO)[C@@H](O)[C@H](O)[C@H]1O [Curculigoside]", "Value observed": 0.136}
{"Compound": "COc1ccc(-c2oc3c(CCC(C)(C)O)c(O)cc(O)c3c(=O)c2O)cc1", "Value observed": -0.335}
{"Compound": "O=C(O)Cc1cc(I)c(Oc2cc(I)c(O)c(I)c2)c(I)c1", "Value observed": -0.425}

Recorded result, OC[C@H]1O[C@@H](Oc2ccc(O)cc2)[C@H](O)[C@@H](O)[C@@H]1O [?-Arbutin] , Z Repl 2: 0.945

* * *

Tested target: tau (Homo sapiens, UniProt P10636)
Test summary: MCE Phenols Library screening, tau biosensor cell seeding assay (AvZ)
Assay type: cell-based
Cond: puncta, replicate 1
Value type: raw data 1
Keep the answer to the number alone.

Below, 6 compounds whose answers are already recorded.
{"Compound": "COc1ccc(/C=C/c2cc(O)cc(O)c2)cc1", "Value observed": 33711.1}
{"Compound": "OC[C@H]1O[C@@H](Oc2cc(/C=C/c3cc(O)cc(O)c3)ccc2O)[C@H](O)[C@@H](O)[C@@H]1O [Piceatannol 3'-O-glucoside]", "Value observed": 31229.6}
{"Compound": "CC(=O)c1c(C)cc2cccc(O)c2c1O", "Value observed": 21978.8}
{"Compound": "CC(C)=CCc1c(O[C@@H]2O[C@H](CO)[C@@H](O)[C@H](O)[C@H]2O)cc(O)c2c(=O)c(O[C@@H]3O[C@@H](C)[C@H](O)[C@@H](O)[C@H]3O)c(-c3ccc(O)cc3)oc12 [Epimedoside A]", "Value observed": 33332}
{"Compound": "Oc1cccc2ccccc12", "Value observed": 45632.1}
{"Compound": "COc1c2c3c4c(c(OC)c(=O)c5c(O)cc(OC)c(c6c(OC)cc(O)c(c1=O)c63)c54)[C@@H](C(C)=O)[C@@](C)(O)C2", "Value observed": 5209.06}

Here is another compound to look at.
Recorded result, O=C1C[C@@H](c2ccc(O)c(O)c2)Oc2cc(O[C@@H]3O[C@H](CO)[C@@H](O)[C@H](O)[C@H]3O)cc(O)c21 [Eriodictyol-7-O-glucoside] , raw data 1: 22716.1

* * *

Tested target: tau (Homo sapiens)
Test summary: MCE Phenols Library screening, tau biosensor cell seeding assay (AvZ)
Type: cell-based
Cond: average Z score of two replicates, Phenols Library screen
Value type: av Z
Keep the answer to the number alone.

Below, 6 compounds whose answers are already recorded.
{"Compound": "Cc1cc(O)c2c(c1)C(=O)c1cc(O)cc(O[C@@H]3O[C@H](CO)[C@@H](O)[C@H](O)[C@H]3O)c1C2=O [Emodin-8-glucoside]", "Value observed": -0.127}
{"Compound": "COc1c2ccoc2c(O)c2oc(=O)ccc12 [8-Hydroxybergapten]", "Value observed": 0.074}
{"Compound": "C[C@@H]1O[C@@H](OC[C@H]2O[C@@H](OCCc3ccc(O)c(O)c3)[C@H](O)[C@@H](O)[C@@H]2OC(=O)/C=C/c2ccc(O)c(O)c2)[C@H](O)[C@H](O)[C@H]1O [Forsythiaside A]", "Value observed": -0.131}
{"Compound": "O=c1cc(-c2ccc(O)cc2)oc2c([C@@H]3O[C@H](CO)[C@@H](O)[C@H](O)[C@H]3O)c(O)c([C@@H]3OC[C@H](O)[C@H](O)[C@H]3O)c(O)c12 [Isoschaftoside]", "Value observed": -0.126}
{"Compound": "COc1ccc2cc3[n+](cc2c1O)CCc1cc2c(cc1-3)OCO2.[Cl-] [Berberrubine (chloride)]", "Value observed": -0.079}
{"Compound": "COc1cc(-c2cc(=O)c3c(O)c(OC)c(O)cc3o2)cc(O)c1OC", "Value observed": -0.09}

Recorded result, O=C1c2c(O)cccc2[C@@H]([C@@H]2O[C@H](CO)[C@@H](O)[C@H](O)[C@H]2O)c2cc(CO)cc(O)c21 , av Z: 0.059

* * *

Tested target: tau (Homo sapiens, UniProt P10636)
Test summary: MCE Phenols Library screening, tau biosensor cell seeding assay (AvZ)
Type: cell-based
Cond: puncta, replicate 1
List of raw data 1 values.
Keep the answer to the number alone.

Below, 5 compounds whose answers are already recorded.
{"Compound": "COc1cc(-c2coc3cc4c(c(O)c3c2=O)OCO4)cc(O)c1OC", "raw data 1": 36614.6}
{"Compound": "O=c1cc(-c2ccc(O)cc2)oc2cc(O)ccc12 [7,4'-Dihydroxyflavone]", "raw data 1": 34900.1}
{"Compound": "O=c1c(O)c(-c2ccc(O)c(O)c2)oc2c(O[C@@H]3O[C@H](CO)[C@@H](O)[C@H](O)[C@H]3O)c(O)cc(O)c12", "raw data 1": 19618.8}
{"Compound": "Cc1cc2c(C(C)C)c(O)c(O)c(C=O)c2c(O)c1-c1c(C)cc2c(C(C)C)c(O)c(O)c(C=O)c2c1O", "raw data 1": 287.373}
{"Compound": "COc1cc2ccc(=O)oc2c(O)c1O", "raw data 1": 23050.6}

Recorded result, COc1cc(-c2oc3cc(O)cc(O)c3c(=O)c2O[C@@H]2O[C@H](CO[C@@H]3O[C@@H](C)[C@H](O)[C@@H](O)[C@H]3O)[C@@H](O)[C@H](O)[C@H]2O[C@@H]2O[C@@H](C)[C@H](O)[C@@H](O)[C@H]2O)ccc1O [Typhaneoside] , raw data 1: 24283.7

Recorded result, OC[C@H]1O[C@@H](Oc2ccc(O)cc2)[C@H](O)[C@@H](O)[C@@H]1O [?-Arbutin] , raw data 1: 45542.6

* * *

Tested target: tau (Homo sapiens, UniProt P10636)
Test summary: MCE Phenols Library screening, tau biosensor cell seeding assay (AvZ)
Type: cell-based
Cond: raw puncta, replicate 1
Value type: raw data 1
Keep the answer to the number alone.

{"Compound": "COc1cc2c(=O)c(-c3ccc(O)cc3)coc2cc1O[C@@H]1O[C@H](COC(C)=O)[C@@H](O)[C@H](O)[C@H]1O [6''-O-Acetylglycitin]", "raw data 1": 21928.1}
{"Compound": "O=C(/C=C/c1ccc(O)c(O)c1)OC[C@H]1O[C@@H](OCCc2ccc(O)c(O)c2)[C@H](O)[C@@H](O)[C@@H]1O [Calceolarioside B]", "raw data 1": 27671.5}

Result for O=c1oc2cc(O)ccc2c2oc3cc(O)ccc3c12 [Coumestrol] , tested on tau (Homo sapiens, UniProt P10636), raw data 1: 26137.6

Result for O=c1c(O[C@@H]2O[C@H](CO)[C@@H](O)[C@H](O)[C@H]2O)c(-c2ccc(O)c(O)c2)oc2cc(O)cc(O)c12 [Isoquercetin] , tested on tau (Homo sapiens, UniProt P10636), raw data 1: 28442.1

Result for COc1cc(CNC(=O)CCCCCC(C)C)ccc1O [Nordihydrocapsaicin] , tested on tau (Homo sapiens, UniProt P10636), raw data 1: 26333.1

Result for COc1cc(C=O)cc(OC)c1O [Syringaldehyde] , tested on tau (Homo sapiens, UniProt P10636), raw data 1: 28055.2

Result for O=C1c2cc(CO)cc(O)c2C(=O)c2c(O[C@@H]3O[C@H](CO)[C@@H](O)[C@H](O)[C@H]3O)cccc21 [Aloe-emodin-8-O-?-D-glucopyranoside] , tested on tau (Homo sapiens, UniProt P10636), raw data 1: 17796.3

* * *

Tested target: UniProt:P10636
Test summary: MCE Phenols Library screening, tau biosensor cell seeding assay (AvZ)
Assay type: cell-based
Cond: Z score, replicate 1
Z repl 1 vs -0.004: at or above is Yes, below is No.

Worked examples, 2 compounds total:
{"Compound": "COc1ccc(-c2cc(=O)c3c(O)c(OC)c(OC)c(OC)c3o2)cc1", "Class": "Yes"}
{"Compound": "CC(C(=O)c1ccc(O)cc1O)c1ccc(O)cc1 (stereo not drawn)", "Class": "Yes"}

Please check the record CC1=CC(=O)c2c(O)cccc2C1=O and state if its Z repl 1 is at or above -0.004.
No

Please check the record O=C1O[C@@H]2[C@@H](O)[C@H](O)[C@@H](CO)O[C@H]2c2c1cc(O)c(O)c2O and state if its Z repl 1 is at or above -0.004.
No

* * *

List of Z repl 1 values.
Tested target: tau (Homo sapiens, UniProt P10636)
Test summary: MCE Phenols Library screening, tau biosensor cell seeding assay (AvZ)
Format: cell-based
Cond: Z score, replicate 1

Below, 2 molecules whose answers are already recorded.
{"Molecule": "O=C(O)Cc1cc(O)ccc1O", "Z repl 1": -1.286}
{"Molecule": "Oc1cc(O)cc(-c2cc3ccc(O)cc3o2)c1", "Z repl 1": 0.06}

Recorded result, COc1cc([C@@H]2c3cc4c(cc3C[C@H]3COC(=O)[C@@H]32)OCO4)cc(OC)c1OC , Z repl 1: 3.44

Recorded result, COc1cc(/C=C/C(=O)O[C@H]2C[C@@](O)(C(=O)O)C[C@H](O)[C@@H]2O)ccc1O (stereo in doubt) , Z repl 1: 0.043

Recorded result, O=c1c2cc(O)c(O)cc2oc2c([C@@H]3O[C@H](CO)[C@@H](O)[C@H](O)[C@H]3O)c(O)cc(O)c12 , Z repl 1: 0.307

Recorded result, NCc1ccc(O)cc1 [4-Hydroxybenzylamine] , Z repl 1: -0.693

Recorded result, COc1ccc(-c2oc3c(CCC(C)(C)O)c(O[C@@H]4O[C@H](CO)[C@@H](O)[C@H](O)[C@H]4O)cc(O)c3c(=O)c2O)cc1 [Maohuoside A] , Z repl 1: -0.381

Recorded result, COc1ccc(CCC(=O)c2ccc(O)cc2)c(OC)c1 , Z repl 1: -0.527

Recorded result, COc1cc(O)c2c(=O)c(OC)c(-c3ccc(OC)c(OC)c3)oc2c1 , Z repl 1: -0.575

Recorded result, CCCCC[C@H](O)CC(=O)CCc1ccc(O)c(OC)c1 [[6]-Gingerol] , Z repl 1: 0.385

Recorded result, COc1ccc(-c2cc(=O)c3c(O)c(OC)c(O)c(OC)c3o2)cc1 , Z repl 1: -0.55
